Reference for the values: patent US20230067770A1

target: T1, human CD137-Fc fusion protein (human, UniProt Q07011 24-186, limits assumed); test: ELISA, hybridoma supernatant on plates coated with human CD137-Fc fusion protein
T1 construct: also called huCD137
Metric: binding result

hybridoma anti-CD137 antibody clone 30.19 (antibody, V domains shown, Tested as hybridoma supernatant) VH: QIQLVQSGPELKKPGETVKISCKASGYSFTDYSIHWVKQAPGKGLKWMGWMNTETGEPAYADDFKGRFAFSLETAASTAYLQINHLRDEDTATYFCTRSSYGYFDYWGQGTTLTVSS VL: DIVMTQSPSSMYASLGERVTITCKASQAINTYLSWFQQKPGKSPKTLIYRANRMVDGVPSRFSGSGSGQDYSLTISSLDYEDMGIYYCLQYDDFPYTFGGGTKLEIKR	binds
hybridoma anti-CD137 antibody clone 29.39 (antibody, V domains shown, Tested as hybridoma supernatant) VH: EVKLMESGAELVKPGASVKLSCTASGFNIKDTYIHWVKQRPEQGLEWIGKIDPANGNTEYDLNFQGRATITADTSSNTAYLQLSSLTSEDTAVYYCTTGNLHYYLMDYWGQGTSVTSLE VL: DIVMTQSPSSMYASLGERVTITCKASQAINTYLSWFQQKPGKSPKTLIYRANRMVDGVPSRFSGSGSGQDYSLTISSLDYEDMGIYYCLQYDDFPYTFGGGTKLEIKR	binds
hybridoma anti-CD137 antibody clone 44.21 (antibody, V domains shown, Tested as hybridoma supernatant) VH: EVKLMESGAELVKPGASVKLSCTASGFNIKDTYIHWVKQRPEQGLEWIGKIDPANGNTEYDLNFQGRATITADTSSNTAYLQLSSLTSEDTAVYYCTTGNLHYYLMDYWGQGTSVTSLE VL: DIVMTQTPLSLPVSLGDHASISCRSSQSLVHSNGNTYLHWFLQKPGQSPKLLIYKVSNRFSGVPDRFSGSGSGTDFTLKISRVEAEDLGVYFCSQNAHVPWTFGGGTKRKSNE	binds
hybridoma anti-CD137 antibody clone 3.10 (antibody, V domains shown, Tested as hybridoma supernatant) VH: EVQLVESGPGLVAPSQSLSITCTVSGFSLTTYDVSWIRQPPGKGLEWLGVIWTGGGTNYNSTFMSRLTISKDNSKNQVFLKMNSLQTDDTATYYCVRVDYWGQGTTLTVSR VL: DVVMTQTPLSLPVSLGGHASISCRSSQSLVHNNGNTYLHWFLQKPGQSPKLLIYKVSNRFSGVPDRFSGSGSGTDFTLKISRVEAEDLGVYFCSQNAHVPWTFGGGTKLEIKR	binds
